subject of test: TJP2_1, Q9UDY2
Sequence (Q9UDY2 24-128): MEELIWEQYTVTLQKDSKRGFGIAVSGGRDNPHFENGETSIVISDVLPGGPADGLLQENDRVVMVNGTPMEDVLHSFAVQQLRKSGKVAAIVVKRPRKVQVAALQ
protocol summary: holdup assay
Set-up: key: below the threshold = too weak to quantify, mostly under pKd 3.1 to 4
condition notes: plain residues with an end cap or a label only (N-terminal biotin on a linker: ado-ado)
measurement label: pKd

| binder | result |
| --- | --- |
| HSGYRLNDYV [CLDN14, O95500] | 4.72 |
| QGPVETESVV [SLC45A4, Q5BKX6] | below the threshold |
| DTTVPESEDL [MYOZ2, Q9NPC6] | below the threshold |
| RRISSLESEV [GRIN2C, Q14957] | below the threshold |
